Assayed Target: VChβ (Vibrio cholerae, UniProt Q9KUD6)
Construct: gene VC_0586
Sequence (Q9KUD6 1-222): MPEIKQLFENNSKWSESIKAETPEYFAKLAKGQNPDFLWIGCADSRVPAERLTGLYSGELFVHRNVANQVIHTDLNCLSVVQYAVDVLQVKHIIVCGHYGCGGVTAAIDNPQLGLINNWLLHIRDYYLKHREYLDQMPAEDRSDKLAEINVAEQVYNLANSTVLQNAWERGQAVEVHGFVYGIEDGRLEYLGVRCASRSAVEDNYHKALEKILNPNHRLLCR
Details: read-out: KI (μM)^a / VChβ; CO2 hydration, TRIS pH 8.3, 20 mM Na2SO4, 1 h preincubation at room temperature
Measured Metric: Ki (µM)
Answers are plain numbers, in µM.

**Q:** Please look up its Ki: NP(N)(=O)c1ccccc1 [compound 2, phenylphosphonic diamide 2]
**A:** 0.9

====

Assayed Target: Can2 (Cryptococcus neoformans)
Construct: recombinant, obtained in-house
Sequence (Q3I4V7 1-239): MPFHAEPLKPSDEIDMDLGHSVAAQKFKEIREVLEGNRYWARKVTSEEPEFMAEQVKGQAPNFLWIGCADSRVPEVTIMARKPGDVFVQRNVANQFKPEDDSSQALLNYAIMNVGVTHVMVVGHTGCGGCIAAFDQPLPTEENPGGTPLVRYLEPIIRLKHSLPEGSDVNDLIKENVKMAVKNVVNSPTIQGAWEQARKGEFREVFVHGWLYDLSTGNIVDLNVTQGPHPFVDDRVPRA
Format: biochemical
Details: CO2 hydration, TRIS pH 8.3, 20 mM Na2SO4, 1 h preincubation at room temperature; read-out: KI (μM)^a / Can2
Measured Metric: Ki
// unit must come after the numeric part

**Q:** Please look up its Ki: NP(N)(=O)c1ccccc1 [compound 2, phenylphosphonic diamide 2]
**A:** 0.03 µM

====

Assayed Target: MgCA (Malassezia globosa)
Sequence (A8Q1N3 1-241): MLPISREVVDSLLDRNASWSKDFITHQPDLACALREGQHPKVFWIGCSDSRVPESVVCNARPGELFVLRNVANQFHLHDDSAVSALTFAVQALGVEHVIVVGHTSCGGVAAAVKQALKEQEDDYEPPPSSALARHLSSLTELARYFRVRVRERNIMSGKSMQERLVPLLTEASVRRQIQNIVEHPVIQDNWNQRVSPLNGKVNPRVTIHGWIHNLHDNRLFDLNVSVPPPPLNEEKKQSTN
Measured Metric: pKi
Answers are plain numbers, as −log10 of the molar value.

molecule="C#CCOP(N)(=O)c1ccccc1 (centres unmarked) [compound 10, propargyl phosphonamidate 10]" assayed_target="MgCA (Malassezia globosa)" measured_metric=pKi recorded_result=4.01

For the next question, use this molecule.
**Q:** Please look up its pKi: CCCOP(N)(=O)c1ccccc1 (centres unmarked) [compound 5, propyl (5)]
**A:** 4.10

====

Assayed Target: VChβ (Vibrio cholerae, UniProt Q9KUD6)
Construct: gene VC_0586
Assay Summary: biochemical
Assign pKi to each entry below.
Numbers only, as −log10 of the molar value.

compound="COP(N)(=O)c1ccccc1 (stereo not shown) [compound 3, methyl phosphonamidate 3]" measured_metric=pKi recorded_result=6.30
compound="CCCCOP(N)(=O)c1ccccc1 (stereo not shown) [compound 7, alkyl phosphonamidate 7]" measured_metric=pKi recorded_result=4.57
compound="CC(C)OP(N)(=O)c1ccccc1 (stereo not shown)" measured_metric=pKi recorded_result=5.14
compound="C#CCOP(N)(=O)c1ccccc1 (stereo not shown) [compound 10, propargyl phosphonamidate 10]" measured_metric=pKi recorded_result=4.68
compound="CCOP(N)(=O)c1ccccc1 (stereo not shown)" measured_metric=pKi recorded_result=5.02

Please state pKi for every compound in the list that follows.
1. CCCOP(N)(=O)c1ccccc1 (stereo not shown)
2. NP(=O)(OCCCl)c1ccccc1 (stereo not shown) [compound 9, alkyl phosphonamidate 9]

**A:**
[4.81, 4.46]

====

Assayed Target: LdcCA (Leishmania infantum)
Construct: gene LINJ_06_0630
Sequence (A4HSV2 1-306): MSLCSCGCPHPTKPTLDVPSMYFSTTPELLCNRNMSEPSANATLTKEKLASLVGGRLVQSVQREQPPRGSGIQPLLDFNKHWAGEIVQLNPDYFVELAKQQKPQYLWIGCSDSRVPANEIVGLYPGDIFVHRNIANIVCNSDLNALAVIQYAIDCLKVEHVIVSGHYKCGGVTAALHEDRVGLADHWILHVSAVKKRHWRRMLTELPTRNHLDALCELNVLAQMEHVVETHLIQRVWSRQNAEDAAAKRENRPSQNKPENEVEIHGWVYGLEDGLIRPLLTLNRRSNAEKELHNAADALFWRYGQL
Details: read-out: KI (μM)^a / LdcCA; CO2 hydration, TRIS pH 8.3, 20 mM Na2SO4, 1 h preincubation at room temperature
Field 'label' (enum: Yes / No). Set to Yes when Ki is strictly under 4 µM; else No.

Would you please look over these solved cases?
molecule="CC(C)OP(N)(=O)c1ccccc1 (stereo not drawn) [compound 6, isopropyl (6)]" category=No
molecule="COP(N)(=O)c1ccccc1 (stereo not drawn) [compound 3, methyl phosphonamidate 3]" category=Yes
molecule="CCCOP(N)(=O)c1ccccc1 (stereo not drawn) [compound 5, propyl (5)]" category=No
molecule="NP(N)(=O)c1ccccc1 [compound 2, phenylphosphonic diamide 2]" category=Yes
molecule="CCOP(N)(=O)c1ccccc1 (stereo not drawn) [compound 4, ethyl derivative 4]" category=Yes

**Q:** Strictly below 4 µM: is that where Ki of C#CCOP(N)(=O)c1ccccc1 (stereo not drawn) [compound 10, propargyl phosphonamidate 10] sits?
**A:** No
